The measured values listed here are drawn from ChEMBL document CHEMBL4616666.

Items are presented alongside their recorded Activity.
Molecular target: von Hippel-Lindau disease tumor suppressor/Tyrosine-protein phosphatase non-receptor type 11 (Homo sapiens, UniProt Q06124+P40337)
Sequence (P40337 whole entry partner): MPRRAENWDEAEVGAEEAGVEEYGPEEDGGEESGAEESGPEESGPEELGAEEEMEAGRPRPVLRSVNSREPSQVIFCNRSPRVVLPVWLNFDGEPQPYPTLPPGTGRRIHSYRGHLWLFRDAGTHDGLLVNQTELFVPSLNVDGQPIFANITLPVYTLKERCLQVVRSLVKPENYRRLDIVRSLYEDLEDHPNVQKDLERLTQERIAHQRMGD
Sequence (Q06124 2-593 limits assumed): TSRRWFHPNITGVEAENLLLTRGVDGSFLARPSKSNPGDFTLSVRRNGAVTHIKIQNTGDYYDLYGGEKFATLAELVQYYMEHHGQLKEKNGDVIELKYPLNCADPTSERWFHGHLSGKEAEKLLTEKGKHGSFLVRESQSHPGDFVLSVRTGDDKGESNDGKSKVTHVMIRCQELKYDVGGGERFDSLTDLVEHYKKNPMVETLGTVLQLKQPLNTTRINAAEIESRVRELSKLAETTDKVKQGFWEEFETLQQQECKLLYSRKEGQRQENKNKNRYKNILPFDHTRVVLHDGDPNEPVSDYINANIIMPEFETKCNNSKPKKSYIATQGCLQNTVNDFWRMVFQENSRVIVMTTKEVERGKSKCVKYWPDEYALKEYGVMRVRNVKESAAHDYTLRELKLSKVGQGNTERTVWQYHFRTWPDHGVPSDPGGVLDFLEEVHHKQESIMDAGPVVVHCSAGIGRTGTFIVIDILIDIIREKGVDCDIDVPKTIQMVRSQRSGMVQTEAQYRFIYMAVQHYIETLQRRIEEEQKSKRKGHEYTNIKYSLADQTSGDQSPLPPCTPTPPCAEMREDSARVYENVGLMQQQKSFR
Experiment: Protac activity at VHL1/SHP2 in human KYSE520 cells assessed as induction of SHP2 degradation at 0.1 uM measured after 6 hrs by Western blot analysis relative to control
Format: cell-based
endpoint-name: Activity (%)

compound: Cc1ncsc1-c1ccc([C@H](C)NC(=O)[C@@H]2C[C@@H](O)CN2C(=O)[C@@H](NC(=O)CCCCCCCCCCNC(=O)CCC(=O)Nc2cccc(Sc3ncc(N4CCC(C)(N)CC4)nc3N)c2Cl)C(C)(C)C)cc1
lt-gt-eq: >
endpoint-value: 95
--
compound: Cc1ncsc1-c1ccc([C@H](C)NC(=O)[C@@H]2C[C@@H](O)CN2C(=O)[C@@H](NC(=O)CCCCNC(=O)CC(=O)Nc2cccc(Sc3ncc(N4CCC(C)(N)CC4)nc3N)c2Cl)C(C)(C)C)cc1 (single isomer, unassigned)
lt-gt-eq: =
endpoint-value: 13
